# Test System: pVHL19 (VCB complex: VHL with Elongin B and Elongin C) (Homo sapiens, UniProt P40337)
# Sequence (P40337 54-213): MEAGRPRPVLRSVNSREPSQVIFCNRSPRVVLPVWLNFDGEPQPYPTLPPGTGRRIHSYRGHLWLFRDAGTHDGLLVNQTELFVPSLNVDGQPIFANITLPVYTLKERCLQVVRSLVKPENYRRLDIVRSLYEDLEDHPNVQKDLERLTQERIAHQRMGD
# Sequence (Q15370 1-104 partner limits assumed): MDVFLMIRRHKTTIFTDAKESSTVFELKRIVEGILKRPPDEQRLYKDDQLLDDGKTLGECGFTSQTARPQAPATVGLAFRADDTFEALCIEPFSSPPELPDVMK
# Sequence (Q15369 17-112 partner limits assumed): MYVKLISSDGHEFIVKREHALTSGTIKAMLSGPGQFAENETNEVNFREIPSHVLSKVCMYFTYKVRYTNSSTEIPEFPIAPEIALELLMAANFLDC
# Method Notes: ITC titration against VCB, short VHL isoform
# Type: binding
# Assay Conditions: ITC, pVHL19
Endpoint: −TΔS (kJ/mol)
Reply numerically in kJ/mol, unit not repeated.

INSERT INTO results (compound, endpoint, endpoint_result) VALUES
  ('CC(=O)N[C@H](C(=O)N1C[C@H](O)C[C@H]1C(=O)NCc1ccc(-c2scnc2C)cc1OCCOCCOCCOCCOCCOCC(=O)N[C@H](C(=O)N1C[C@H](O)C[C@H]1C(=O)NCc1ccc(-c2scnc2C)cc1)C(C)(C)C)C(C)(C)C [CMP112]', '−TΔS', 24.3);

Q: What value of −TΔS has been recorded for this entry: Cc1ncsc1-c1ccc(CNC(=O)[C@@H]2C[C@@H](O)CN2C(=O)[C@@H](NC(=O)COCCOCCOCCOCCOCCOc2cc(-c3scnc3C)ccc2CNC(=O)[C@@H]2C[C@@H](O)CN2C(=O)[C@@H](NC(=O)C2(C#N)CC2)C(C)(C)C)C(C)(C)C)cc1 [CMP113]
Ans: -13

src = patent US11261179B2
